assay: Clearance in male mouse at 20 mg/kg, iv; format: ADME, organism-based; conditions: in vivo
OBSERVATION_TYPE: clearance (mL/min/kg)
Just the number please, in mL/min/kg, no unit attached.

Input: I would be grateful if you could share the reported clearance for "Nc1cc(F)c(S(=O)(=O)NC2COC2)cc1C(=O)Nc1ccc(F)c(C(F)F)c1" .
Output: 65.5

Input: I would be grateful if you could share the reported clearance for "Nc1cc(F)c(S(=O)(=O)N[C@H]2CNC2=O)cc1C(=O)Nc1ccc(F)c(C(F)F)c1" .
Output: 50.5

* * *

test: Cmax in male mouse at 5 mg/kg, po; assay type: ADME, organism-based; settings: in vivo
OBSERVATION_TYPE: Cmax (µg/mL)
Just the number please, in µg/mL, no unit attached.

Input: I would be grateful if you could share the reported Cmax for "Nc1cc(F)c(S(=O)(=O)NC2COC2)cc1C(=O)Nc1ccc(F)c(C(F)F)c1" .
Output: 0.54

Input: I would be grateful if you could share the reported Cmax for "Nc1cc(F)c(S(=O)(=O)N[C@H]2CNC2=O)cc1C(=O)Nc1ccc(F)c(C(F)F)c1" .
Output: 0.28

* * *

Task for the reader: assign each of the following molecules its reported CC50.
assay: Cytotoxicity in human HepG2.2.15 cells assessed as reduction in cell viability; assay type: toxicity, cell-based, HepG2 2.2.15
Just the number please, in µM, no unit attached.

Input: I would be grateful if you could share the reported CC50 for "CC1(NS(=O)(=O)c2cc(C(=O)Nc3ccc(F)c(C(F)F)c3)c(N)cc2F)COC1" .
Output: 26.1

Input: I would be grateful if you could share the reported CC50 for "Nc1cc(F)c(S(=O)(=O)N2CCS(=O)(=O)CC2)cc1C(=O)Nc1ccc(F)c(C(F)F)c1" .
Output: 385

Input: I would be grateful if you could share the reported CC50 for "CC(C)(NS(=O)(=O)c1cc(C(=O)Nc2ccc(F)c(C(F)F)c2)c(N)cc1F)C1COC1" .
Output: 161

Input: I would be grateful if you could share the reported CC50 for "C[C@H](CO)NS(=O)(=O)c1cc(C(=O)Nc2ccc(F)c(F)c2)c(N)cc1F" .
Output: 204

Input: I would be grateful if you could share the reported CC50 for "Nc1cc(F)c(S(=O)(=O)N2CCOCC2)cc1C(=O)Nc1ccc(F)c(Cl)c1" .
Output: 198

Input: I would be grateful if you could share the reported CC50 for "COCCNS(=O)(=O)c1cc(C(=O)Nc2ccc(F)c(F)c2)c(N)cc1F" .
Output: 97

Input: I would be grateful if you could share the reported CC50 for "Nc1cc(F)c(S(=O)(=O)N2CC3CCC(C2)O3)cc1C(=O)Nc1ccc(F)c(F)c1" .
Output: 14

* * *

assay: Plasma protein binding in human; format: ADME, cell-free; conditions: read-out: PPB (converted)
OBSERVATION_TYPE: fraction unbound
Answer field: number only, no words.

Input: I would be grateful if you could share the reported fraction unbound for "Nc1cc(F)c(S(=O)(=O)N[C@H]2CNC2=O)cc1C(=O)Nc1ccc(F)c(C(F)F)c1" .
Output: 0.115

Input: I would be grateful if you could share the reported fraction unbound for "Nc1cc(F)c(S(=O)(=O)NC2COC2)cc1C(=O)Nc1ccc(F)c(C(F)F)c1" .
Output: 0.128

* * *

The reader will find IC50 measurements below, all made with Cytochrome P450 2D6 (Homo sapiens, UniProt P10635).
Sequence (P10635 whole entry): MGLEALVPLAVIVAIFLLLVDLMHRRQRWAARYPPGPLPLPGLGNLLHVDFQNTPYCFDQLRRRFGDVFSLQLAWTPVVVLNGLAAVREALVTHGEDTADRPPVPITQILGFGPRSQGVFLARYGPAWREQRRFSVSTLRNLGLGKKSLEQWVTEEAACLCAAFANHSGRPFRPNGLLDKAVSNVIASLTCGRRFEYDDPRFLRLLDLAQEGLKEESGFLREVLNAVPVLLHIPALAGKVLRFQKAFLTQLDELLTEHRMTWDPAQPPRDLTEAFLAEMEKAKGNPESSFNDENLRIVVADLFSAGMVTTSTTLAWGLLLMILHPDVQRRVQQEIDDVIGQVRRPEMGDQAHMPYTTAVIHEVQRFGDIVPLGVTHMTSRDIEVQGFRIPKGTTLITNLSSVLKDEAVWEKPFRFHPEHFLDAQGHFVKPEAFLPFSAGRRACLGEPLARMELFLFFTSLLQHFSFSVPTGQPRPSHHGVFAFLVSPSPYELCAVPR

Input: I would be grateful if you could share the reported IC50 for "Nc1cc(F)c(S(=O)(=O)N[C@H]2CNC2=O)cc1C(=O)Nc1ccc(F)c(C(F)F)c1" .
Output: 29.9 µM

Input: I would be grateful if you could share the reported IC50 for "Nc1cc(F)c(S(=O)(=O)NC2COC2)cc1C(=O)Nc1ccc(F)c(C(F)F)c1" .
Output: > 100 µM

* * *

Task for the reader: assign each of the following compounds its reported AUC(0-t).
assay: AUClast in male mouse at 5 mg/kg, iv; assay type: ADME, organism-based; details: in vivo
Just the number please, in µg·h/mL, no unit attached.

Input: I would be grateful if you could share the reported AUC(0-t) for "Nc1cc(F)c(S(=O)(=O)N[C@H]2CNC2=O)cc1C(=O)Nc1ccc(F)c(C(F)F)c1" .
Output: 2.39

Input: I would be grateful if you could share the reported AUC(0-t) for "Nc1cc(F)c(S(=O)(=O)NC2COC2)cc1C(=O)Nc1ccc(F)c(C(F)F)c1" .
Output: 0.85

* * *

test: Cytotoxicity in human HepG2.2.15 cells assessed as reduction in cell viability; type: toxicity, cell-based, HepG2 2.2.15
Task for the reader: assign each of the following compounds its reported CC50.
Just the number please, in µM, no unit attached.

Input: I would be grateful if you could share the reported CC50 for "Nc1cc(F)c(S(=O)(=O)N2CCCOCC2)cc1C(=O)Nc1ccc(F)c(C(F)F)c1" .
Output: 5.14

Input: I would be grateful if you could share the reported CC50 for "Nc1cc(F)c(S(=O)(=O)N[C@@H]2CCOC2=O)cc1C(=O)Nc1ccc(F)c(C(F)F)c1" .
Output: 238

Input: I would be grateful if you could share the reported CC50 for "Nc1cc(F)c(S(=O)(=O)N2CCOCC2)cc1C(=O)Nc1ccc(F)c(F)c1" .
Output: 248

Input: I would be grateful if you could share the reported CC50 for "Nc1cc(F)c(S(=O)(=O)N2CCCOCC2)cc1C(=O)Nc1ccc(F)c(F)c1" .
Output: 10.7

Input: I would be grateful if you could share the reported CC50 for "CN(C1COC1)S(=O)(=O)c1cc(C(=O)Nc2ccc(F)c(C(F)F)c2)c(N)cc1F" .
Output: 7.68

Input: I would be grateful if you could share the reported CC50 for "Nc1cc(F)c(S(=O)(=O)N[C@H]2COC(=O)C2)cc1C(=O)Nc1ccc(F)c(C(F)F)c1" .
Output: 698

Input: I would be grateful if you could share the reported CC50 for "Nc1cc(F)c(S(=O)(=O)NC2CNC2)cc1C(=O)Nc1ccc(F)c(F)c1" .
Output: 85.8

* * *

test: Half life in male mouse at 20 mg/kg, iv; type: ADME, organism-based; conditions: in vivo
OBSERVATION_TYPE: half-life (h)
Just the number please, in h, no unit attached.

Input: I would be grateful if you could share the reported half-life for "Nc1cc(F)c(S(=O)(=O)N[C@H]2CNC2=O)cc1C(=O)Nc1ccc(F)c(C(F)F)c1" .
Output: 5.15

Input: I would be grateful if you could share the reported half-life for "Nc1cc(F)c(S(=O)(=O)NC2COC2)cc1C(=O)Nc1ccc(F)c(C(F)F)c1" .
Output: 9.6

* * *

Task for the reader: assign each of the following compounds its reported half-life.
assay: Half life in male mouse at 5 mg/kg, iv; assay type: ADME, organism-based; conditions: in vivo
Just the number please, in h, no unit attached.

Input: I would be grateful if you could share the reported half-life for "Nc1cc(F)c(S(=O)(=O)NC2COC2)cc1C(=O)Nc1ccc(F)c(C(F)F)c1" .
Output: 8.89

Input: I would be grateful if you could share the reported half-life for "Nc1cc(F)c(S(=O)(=O)N[C@H]2CNC2=O)cc1C(=O)Nc1ccc(F)c(C(F)F)c1" .
Output: 2.37

* * *

assay: Cytotoxicity in African green monkey Vero cells; type: toxicity, cell-based, Chlorocebus sabaeus
pIC50: −log10 of the molar value.
OBSERVATION_TYPE: pIC50

Input: I would be grateful if you could share the reported pIC50 for "Nc1cc(F)c(S(=O)(=O)N[C@H]2CNC2=O)cc1C(=O)Nc1ccc(F)c(C(F)F)c1" .
Output: < 4.00

Input: I would be grateful if you could share the reported pIC50 for "Nc1cc(F)c(S(=O)(=O)NC2COC2)cc1C(=O)Nc1ccc(F)c(C(F)F)c1" .
Output: < 4.00

* * *

test: Cytotoxicity in mouse L929 cells; assay type: toxicity, cell-based
pIC50: −log10 of the molar value.
OBSERVATION_TYPE: pIC50

Input: I would be grateful if you could share the reported pIC50 for "Nc1cc(F)c(S(=O)(=O)NC2COC2)cc1C(=O)Nc1ccc(F)c(C(F)F)c1" .
Output: < 4.00

Input: I would be grateful if you could share the reported pIC50 for "Nc1cc(F)c(S(=O)(=O)N[C@H]2CNC2=O)cc1C(=O)Nc1ccc(F)c(C(F)F)c1" .
Output: < 4.00

* * *

molecular target: Cytochrome P450 2C19 (Homo sapiens, UniProt P33261)
Sequence (P33261 whole entry): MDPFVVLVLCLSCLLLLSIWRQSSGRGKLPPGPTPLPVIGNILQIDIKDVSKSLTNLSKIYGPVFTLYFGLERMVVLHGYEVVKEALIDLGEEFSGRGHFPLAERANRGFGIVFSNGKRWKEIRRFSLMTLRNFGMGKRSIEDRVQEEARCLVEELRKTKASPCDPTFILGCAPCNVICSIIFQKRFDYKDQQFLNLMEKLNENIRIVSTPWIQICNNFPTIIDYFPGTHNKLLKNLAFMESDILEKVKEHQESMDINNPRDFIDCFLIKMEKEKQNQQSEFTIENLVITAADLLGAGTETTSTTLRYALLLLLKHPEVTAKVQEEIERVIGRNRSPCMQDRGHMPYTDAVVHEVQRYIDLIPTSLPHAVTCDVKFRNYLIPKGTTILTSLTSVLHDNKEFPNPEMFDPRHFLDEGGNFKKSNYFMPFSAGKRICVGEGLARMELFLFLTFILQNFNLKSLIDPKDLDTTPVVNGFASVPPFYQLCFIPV
OBSERVATION_TYPE: pIC50
Scale note: pIC50 = -log10(concentration in M).

Input: I would be grateful if you could share the reported pIC50 for "Nc1cc(F)c(S(=O)(=O)N[C@H]2CNC2=O)cc1C(=O)Nc1ccc(F)c(C(F)F)c1" .
Output: 4.35
